Would you kindly list MIC for each of these compounds?
Tested on: Staphylococcus aureus
test.method.notes: Antibacterial activity against methicillin-resistant Staphylococcus aureus 86 assessed as bacterial growth inhibition in presence of 50 ug/ml calcium ions by CLSI protocol based broth microdilution method
Assay type: functional
One number for each entry, in µg/mL.

# count of solved cases: 2
{"mol": "CCCCCCCCCC(=O)N[C@@H](Cc1c[nH]c2ccccc12)C(=O)N[C@@H](CC(N)=O)C(=O)N[C@@H](CC(=O)O)C(=O)N[C@@H]1C(=O)NCC(=O)N[C@@H](CCCNC(=N)N)C(=O)N[C@@H](CC(=O)O)C(=O)N[C@H](C)C(=O)N[C@@H](CC(=O)O)C(=O)NCC(=O)N[C@H](CO)C(=O)N[C@@H]([C@@H](C)CC(=O)O)C(=O)N[C@@H](CC(=O)c2ccccc2N)C(=O)O[C@@H]1C", "unit.tag": "µg/mL", "MIC": 2}
{"mol": "CCCCCCCCCC(=O)N[C@@H](Cc1c[nH]c2ccccc12)C(=O)N[C@@H](CC(N)=O)C(=O)N[C@@H](CC(=O)O)C(=O)N[C@@H]1C(=O)NCC(=O)N[C@@H]([C@@H](C)CC)C(=O)N[C@@H](CC(=O)O)C(=O)N[C@H](C)C(=O)N[C@@H](CC(=O)O)C(=O)NCC(=O)N[C@H](CO)C(=O)N[C@@H]([C@@H](C)CC(=O)O)C(=O)N[C@@H](CC(=O)c2ccccc2N)C(=O)O[C@@H]1C", "unit.tag": "µg/mL", "MIC": 8}

Would you be so kind as to report MIC for each listed record?
1. CCCCCCCCCC(=O)N[C@@H](Cc1c[nH]c2ccccc12)C(=O)N[C@@H](CC(N)=O)C(=O)N[C@@H](CC(=O)O)C(=O)N[C@@H]1C(=O)NCC(=O)N[C@@H]([C@@H](C)O)C(=O)N[C@@H](CC(=O)O)C(=O)N[C@H](C)C(=O)N[C@@H](CC(=O)O)C(=O)NCC(=O)N[C@H](CO)C(=O)N[C@@H]([C@@H](C)CC(=O)O)C(=O)N[C@@H](CC(=O)c2ccccc2N)C(=O)O[C@@H]1C
2. CCCCCCCCCC(=O)N[C@@H](Cc1cccc2ccccc12)C(=O)N[C@@H](CC(N)=O)C(=O)N[C@@H](CC(=O)O)C(=O)N[C@@H]1C(=O)NCC(=O)N[C@@H](CCCN)C(=O)N[C@@H](CC(=O)O)C(=O)N[C@H](C)C(=O)N[C@@H](CC(=O)O)C(=O)NCC(=O)N[C@H](CO)C(=O)N[C@@H]([C@@H](C)CC(=O)O)C(=O)N[C@@H](CC(=O)c2ccccc2N)C(=O)O[C@@H]1C
3. CCCCCCCCCC(=O)N[C@@H](Cc1c[nH]c2ccccc12)C(=O)N[C@@H](CC(N)=O)C(=O)N[C@@H](CC(=O)O)C(=O)N[C@@H]1C(=O)NCC(=O)N[C@@H](Cc2c[nH]c3ccccc23)C(=O)N[C@@H](CC(=O)O)C(=O)N[C@H](C)C(=O)N[C@@H](CC(=O)O)C(=O)NCC(=O)N[C@H](CO)C(=O)N[C@@H]([C@@H](C)CC(=O)O)C(=O)N[C@@H](CC(=O)c2ccccc2N)C(=O)O[C@@H]1C
4. CCCCCCCCCC(=O)N[C@@H](Cc1c[nH]c2ccccc12)C(=O)N[C@@H](CC(N)=O)C(=O)N[C@@H](CC(=O)O)C(=O)N[C@@H]1C(=O)NCC(=O)N[C@@H](CCCN)C(=O)N[C@@H](CC(=O)O)C(=O)N[C@H](C)C(=O)N[C@H](CC(=O)O)C(=O)NCC(=O)N[C@H](CO)C(=O)N[C@@H]([C@@H](C)CC(=O)O)C(=O)N[C@@H](CC(=O)c2ccccc2N)C(=O)O[C@@H]1C
5. CCCCCCCCCC(=O)N[C@@H](Cc1c[nH]c2ccccc12)C(=O)N[C@@H](CC(N)=O)C(=O)N[C@@H](CC(=O)O)C(=O)N[C@@H]1C(=O)NCC(=O)N[C@@H](CC(=O)O)C(=O)N[C@@H](CC(=O)O)C(=O)N[C@H](C)C(=O)N[C@@H](CC(=O)O)C(=O)NCC(=O)N[C@H](CO)C(=O)N[C@@H]([C@@H](C)CC(=O)O)C(=O)N[C@@H](CC(=O)c2ccccc2N)C(=O)O[C@@H]1C

2
0.25
4
16
16
